- Tested on: NCI-H23 lung
- test_protocol: NCI tumour cell line growth inhibition, 48 h
Attribute: GI50

[
  {
    "query_smiles": "COc1cc(/C=C\\c2cc(OC)c(OC)c(OC)c2)cc(N/C=C\\C(=O)c2c[nH]c3ccccc23)c1OC",
    "tgt": "NCI-H23 lung",
    "GI50": "3.75 µM"
  },
  {
    "query_smiles": "O=C1Nc2ccccc2/C1=C1\\CCc2cc(O)ccc21",
    "tgt": "NCI-H23 lung",
    "GI50": "7.07 µM"
  },
  {
    "query_smiles": "O=C(c1ccco1)c1c(C(F)(F)F)n([O-])c2ccc(C(F)(F)F)cc2[n+]1=O",
    "tgt": "NCI-H23 lung",
    "GI50": "0.853 µM"
  },
  {
    "query_smiles": "O=C(/C(=C\\c1c(-c2ccccc2)[nH]c2ccccc12)S(=O)(=O)c1ccccc1)c1ccccc1",
    "tgt": "NCI-H23 lung",
    "GI50": "9.57 µM"
  },
  {
    "query_smiles": "Nc1cc2c(cc1Br)[nH]c(=O)c1ccccc12",
    "tgt": "NCI-H23 lung",
    "GI50": "1.8 µM"
  }
]

====

- Tested on: HCT-15 colon
- test_protocol: NCI tumour cell line growth inhibition, 48 h
reported_metric: GI50

[
  {
    "molecule": "O=C(O)c1cccc(COc2ccc([N+](=O)[O-])cc2Cl)c1",
    "reported_metric": "GI50",
    "result": "> 100 µM"
  },
  {
    "molecule": "CCCc1cc(=O)n2c(C(=O)Nc3ccc(Cl)cc3C)c(C(=O)Nc3ccc(F)cc3)sc2n1",
    "reported_metric": "GI50",
    "result": "9.4 µM"
  },
  {
    "molecule": "COC(=O)c1cc2c(o1)-c1nccc3c1c(nc1ccccc13)C2=O",
    "reported_metric": "GI50",
    "result": "1.57 µM"
  },
  {
    "molecule": "COc1ccc(-c2nn(-c3cccc(Cl)c3)cc2-c2cc(-c3ccccc3)[nH]c(=O)c2C#N)cc1",
    "reported_metric": "GI50",
    "result": "27 µM"
  },
  {
    "molecule": "CCc1ccc2c(c1)C(=O)c1c-2n(CCCN=[N+]=[N-])c(=O)c2cc([N+](=O)[O-])ccc12",
    "reported_metric": "GI50",
    "result": "> 50 µM"
  },
  {
    "molecule": "COc1ccc(-c2nc(-c3cc(OC)cc(OC)c3)[nH]c2-c2ccc(OC)cc2)cc1",
    "reported_metric": "GI50",
    "result": "5.04 µM"
  },
  {
    "molecule": "O=C1CCCN1c1ccccc1I(=O)=O",
    "reported_metric": "GI50",
    "result": "> 100 µM"
  },
  {
    "molecule": "Nc1cc2c(cc1Br)[nH]c(=O)c1ccccc12",
    "reported_metric": "GI50",
    "result": "4.79 µM"
  },
  {
    "molecule": "CC(C)(C)[Si](C)(C)OC1[C@@H](CNC(=O)NC(=O)CCl)O[C@@H](n2cnc3c(N)ncnc32)[C@H]1O[Si](C)(C)C(C)(C)C (some centres undefined)",
    "reported_metric": "GI50",
    "result": "0.832 µM"
  }
]
